These entries and their values trace back to ChEMBL document CHEMBL3507680.

- Assay name: Human HepG2 cell viability assay in 384 well format
- Assay type: toxicity, cell-based
- Set-up: dose 125 nL, time 70.5 hour; concentration not given beside the values
- Measurement conditions: HepG2 cells, read-out: Inhibition
Measurement kind: cytotoxicity at 70.5 h (%)
Give the value, in units of %, as a plain number.

stdin: Fill blank: measured cytotoxicity at 70.5 h of the compound O=C(c1ccn(-c2ccccc2Cl)n1)N1CCSCC1 is ____.
stdout: -14.1

stdin: Fill blank: measured cytotoxicity at 70.5 h of the compound N#CC1(NC(=O)COC(=O)Cn2cccn2)CCCC1 is ____.
stdout: -7.86

stdin: Fill blank: measured cytotoxicity at 70.5 h of the compound NC(=O)CSCCC(=O)N1CCCC1c1ccsc1 (stereo not given) is ____.
stdout: -6.66

stdin: Fill blank: measured cytotoxicity at 70.5 h of the compound CCc1nc(CCNc2ncccc2S(N)(=O)=O)sc1C is ____.
stdout: 1.18

stdin: Fill blank: measured cytotoxicity at 70.5 h of the compound c1cc(CNc2ccc(-c3nc(C4CC4)no3)cn2)no1 is ____.
stdout: -8.43

stdin: Fill blank: measured cytotoxicity at 70.5 h of the compound COc1cc(Oc2ccc(C#N)cn2)ccc1CN1CCCC1 is ____.
stdout: -5.77

stdin: Fill blank: measured cytotoxicity at 70.5 h of the compound COCCC(=O)N1CCCC(CCC(=O)NCc2cccc(OC)c2)C1 (stereo not given) is ____.
stdout: 20.8

stdin: Fill blank: measured cytotoxicity at 70.5 h of the compound Cc1ccc(N2CCCC3(CCN(C(=O)NC4CCCC4)C3)C2)nn1 (stereo not given) is ____.
stdout: -12.8

stdin: Fill blank: measured cytotoxicity at 70.5 h of the compound CC(=O)N1CCC2(CC1)CC[C@@]1(C(=O)N(C)C)CN(S(C)(=O)=O)C[C@@H]21 is ____.
stdout: 27.7

stdin: Fill blank: measured cytotoxicity at 70.5 h of the compound CC(C)[C@H]1COC(=O)N1Cc1nccn1C(C)C is ____.
stdout: -4.48

stdin: Fill blank: measured cytotoxicity at 70.5 h of the compound COc1cc(Cl)cc(CN2CCCC(N3CCOCC3)C2)c1OC (stereo not given) is ____.
stdout: -5.79

stdin: Fill blank: measured cytotoxicity at 70.5 h of the compound Cc1cc(C)nc(C2(C)CCCN2CCO)n1 (stereo not given) is ____.
stdout: -0.984

stdin: Fill blank: measured cytotoxicity at 70.5 h of the compound O=C1CO[C@@H]2CN(S(=O)(=O)c3ccccc3F)C[C@H]2N1 is ____.
stdout: -3.37

stdin: Fill blank: measured cytotoxicity at 70.5 h of the compound CC(=O)N(Cc1noc(C)n1)C1CCN(Cc2ccon2)C1 (stereo not given) is ____.
stdout: 37.1

stdin: Fill blank: measured cytotoxicity at 70.5 h of the compound COc1ccc(NC(=O)c2nc3ccccc3n(C)c2=O)c(OC)c1 is ____.
stdout: -0.905

stdin: Fill blank: measured cytotoxicity at 70.5 h of the compound Cc1n[nH]c(C)c1C1CCCN1C(=O)c1coc(Br)c1 (stereo not given) is ____.
stdout: -5.01

stdin: Fill blank: measured cytotoxicity at 70.5 h of the compound COC(=O)c1ccc(NCc2csc(C)n2)cc1Cl is ____.
stdout: -6.69

stdin: Fill blank: measured cytotoxicity at 70.5 h of the compound CN(Cc1cc2cc(F)ccc2[nH]1)C(=O)C1CC(=O)N(C(C)(C)C)C1 (stereo not given) is ____.
stdout: -1.21

stdin: Fill blank: measured cytotoxicity at 70.5 h of the compound CCc1nnc2n1CCN(C(=O)c1ccc3c(c1)NC(=O)CO3)C2 is ____.
stdout: -1.73

stdin: Fill blank: measured cytotoxicity at 70.5 h of the compound CCNc1cc2c(nn1)CCN(C(=O)c1ccoc1)C2 is ____.
stdout: -11.9

stdin: Fill blank: measured cytotoxicity at 70.5 h of the compound COCC1COCCC12CCN(S(=O)(=O)c1ccccc1)CC2 (stereo not given) is ____.
stdout: 0.595

stdin: Fill blank: measured cytotoxicity at 70.5 h of the compound Cc1ncccc1CNCC1CCN(CCO)CC1 is ____.
stdout: -0.718

stdin: Fill blank: measured cytotoxicity at 70.5 h of the compound Cn1nccc1-c1ccc2nc(C3CCN(CC4CC4)CC3)nn2c1 is ____.
stdout: -12.2

stdin: Fill blank: measured cytotoxicity at 70.5 h of the compound COCc1cncc2c1CCN(C(=O)c1ccc(C)o1)C2 is ____.
stdout: 4.32

stdin: Fill blank: measured cytotoxicity at 70.5 h of the compound CCN1CCN(C2CCN(CCOc3ccc(F)cc3)CC2)C1=O is ____.
stdout: -11.7
